Numbers sourced from patent US20240016931A1.

biological target: T1, His-tagged human TSLP antigen (huTSLP-his) (human); assay: ELISA, coated huTSLP-his;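 note: binding of antibodies to plate-bound TSLP read as absorbance at 450 nm after TMB colour development, EC50 derived from binding curves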
T1 construct: Secreted from HEK293E and purified on nickel; whole entry named; also called Human TSLP-his
Exercise: for every item that follows, state its recorded EC50.
Enter your answer as a number in pM; do not include the unit.

## Input Dear colleague, I am looking for the recorded EC50 of the following binder: hu179-05 (antibody, human IgG1, kappa, V domains shown, IgG1-YTE, kappa) VH: EVQLVQSGAEVKKPGSSVKVSCKASGYTFSNYLIEWVRQAPGQGLEWIGVIDPGNGDTNYNENFKGRATLTADKSTSTAYIELSSLRSEDTAVYYCAREDNTGTAFDYWGQGTTVTVSS VL: DIVMTQSPDSLAVSLGERATINCKASQSVSSDVTWYQQKPGQPPKLLIYYVSNHYTGVPDRFSGSGSGTDFTLTISSLQAEDVAVYYCQQHHRFPLTFGQGTKLEIKR
## Output 142

## Input And the next one, hu179-11 (antibody, human IgG1, kappa, V domains shown, IgG1-YTE, kappa) VH: EVQLVQSGAEVKKPGSSVKVSCKASGYTFSNYLIEWVRQAPGQGLEWIGVIDPGNGDTNYNENFKGRATLTADKSTSTAYIELSSLRSEDTAVYYCAREDNTGTAFDYWGQGTTVTVSS VL: SIVMTQTPLSLSVTPGQPASISCKASQSVSSDVTWYLQKPGQSPQLLIYYVSNHYTGVPDRFSGSGYGTDFTLKISRVEAEDVGVYYCQQHHRFPLTFGQGTKLEIKR ?
## Output 137

## Input And the next one, hu179-07 (antibody, human IgG1, kappa, V domains shown, IgG1-YTE, kappa) VH: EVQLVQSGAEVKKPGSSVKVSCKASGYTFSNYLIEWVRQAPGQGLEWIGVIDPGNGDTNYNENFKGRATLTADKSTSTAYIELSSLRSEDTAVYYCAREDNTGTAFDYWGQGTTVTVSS VL: DIVMTQSPDSLAVSLGERATINCKASQSVSSDVTWYQQKPGQSPKLLIYYVSNHYTGVPDRFSGSGSGTDFTFTISSLQAEDVAVYYCQQHHRFPLTFGQGTKLEIKR ?
## Output 448
